Tested on: U251 CNS
Test: NCI tumour cell line growth inhibition, 48 h
Reported Property: TGI (µM)
Supply the numeric figure in µM, leaving out any unit text.

(Q) Bench note: what TGI did C=C(CN(C)Cc1ccccc1)c1ccc(NC(=O)c2ccc(C(=C)CN(C)Cc3ccccc3)cc2)cc1 show?
(A) 45.7

(Q) Next entry: Cc1cccc(NC2=C(Cl)C(=O)c3nc(C)ccc3C2=O)c1
(A) 2.67

(Q) Next entry: OC(C#CCN1CCCC1)(c1ccccc1)c1ccccc1Cl (stereo unspecified)
(A) 35.2

(Q) Next entry: COC(=O)C1=CN(CC2=CC(=O)C(C)=CC2=O)C=C(C(=O)OC)C1c1ccccc1OC
(A) 46.7

(Q) Next entry: CN1CC[C@]2(c3cccc(O)c3)CC(=O)/C(=C/c3ccccc3)[C@@H]1C2
(A) 8.36

====

Test system: M19-MEL melanoma
Assay: NCI tumour cell line growth inhibition, 48 h
Hi there, I'd appreciate the recorded TGI for every entry that follows.

(Q) Form field - read-out: TGI; system: M19-MEL melanoma; submitted item: CCC(C)(C)n1c(C)nc2c1C(=O)c1ccccc1C2=O
(A) 31.7 µM

(Q) Next entry: CCOC(=O)CNC(=O)NC12CC3CC(CC(C3)C1)C2
(A) 369 µM

(Q) Next entry: COc1cc(C[P+](c2ccccc2)(c2ccccc2)c2ccccc2)cc(OC)c1OC
(A) > 100 µM

(Q) Next entry: COC(=N)c1csc(C2OC(CO)C(O)C2O)n1 (configuration not stated)
(A) > 100 µM

(Q) Next entry: CCCCCCCC(=O)OCC1OC(n2cc(F)c(=O)[nH]c2=O)C(N)C(OC(=O)CCCCCCC)C1O (configuration not stated)
(A) 36 µM

(Q) Next entry: COc1cc(OC)c(OC)cc1/C=N/NC(=O)N/N=C/c1cc(OC)c(OC)cc1OC
(A) > 100 µM

(Q) Next entry: CCCCCCCCCCCC[N+]12CC[N+](CCN)(CC1)CC2
(A) > 100 µM

(Q) Next entry: Cc1cc2c(cc1C)[n+](=O)cc(C(=O)C/C(=N/NC(=S)NN)C(=O)Nc1cccc(C(F)(F)F)c1)n2[O-]
(A) > 100 µM

(Q) Next entry: Nc1c(S(=O)(=O)c2ccc(Cl)cc2)c2nc3ccccc3nc2n2ccnc12
(A) > 100 µM

(Q) Next entry: COc1ccc(CC(N)=O)cc1OC
(A) > 1250 µM

(Q) Next entry: O=C(NCCCl)O/N=C/c1cccnc1
(A) > 100 µM

(Q) Next entry: COc1ccc2c(=O)oc3c(OC)cc(CCN(C)C)c4c(=O)oc1c2c34
(A) 28.1 µM

====

Tested on: ACHN renal
Experiment: NCI tumour cell line growth inhibition, 48 h
Reported Property: TGI

(Q) Bench note: what TGI did CC[C@@H]1NC(C(=O)OC)Cc2c1[nH]c1ccccc21 (stereo partly specified) show?
(A) > 100 µM

(Q) Next entry: CSC[C@H](NC(=O)COc1cccc2cnccc12)C(=O)NC(Cc1ccccc1)C(O)C(=O)N1CSC[C@H]1C(=O)NC(C)(C)C (stereo partly specified)
(A) 84.9 µM

(Q) Next entry: O=Cc1cc2c(cc1-c1cc3c(cc1C=O)OCO3)OCO2
(A) > 100 µM

(Q) Next entry: N#CC(I)CS(=O)(=O)c1ccccc1 (stereo unspecified)
(A) 3.35 µM

(Q) Next entry: Cn1ncc2c(NCc3ccccc3)ncnc21
(A) > 100 µM

(Q) Next entry: CNc1cc2oc(=O)cc(C)c2cc1C
(A) > 100 µM

(Q) Next entry: Nc1nc(Cl)nc2c1ncn2C1CC(O)C(CO)O1 (stereo unspecified)
(A) > 100 µM

(Q) Next entry: CO[C@@H]1CC[C@]2(C)OC[C@H](C)[C@@H]3C[C@@H](C)[C@@H](OC(C)=O)[C@@H]4[C@H]3[C@@H]2O[C@H]4C[C@@]1(C)O
(A) > 100 µM

(Q) Next entry: CC[C@]1(O)C[C@H]2CN(CCc3c([nH]c4ccccc34)C(C(=O)OC)(c3cc4c(cc3OC)N(C)[C@H]3[C@@](O)(C(=O)OC)[C@H](OC(C)=O)[C@]5(CC)[C@@H]6C[C@@H]6CN6CC[C@]43[C@@H]65)C2)C1 (stereo partly specified)
(A) > 14.3 µM

(Q) Next entry: COc1c(C)c(OCC=C(C)C)cc(CO)c1CO
(A) > 100 µM

(Q) Next entry: O=C1N(Cc2ccccc2)C2CSCC2N1Cc1ccccc1 (stereo unspecified)
(A) > 100 µM

(Q) Next entry: Oc1oc(C(=C2N=c3ccccc3=N2)c2ccc(Cl)cc2)c(O)c1-c1ccc(Cl)cc1
(A) 14.7 µM

(Q) Next entry: O=C(O)c1ccc(CNCc2ccccc2)cc1
(A) > 100 µM

(Q) Next entry: COc1cc2c(cc1OCCCCCN1CCN(c3ncnc4ccccc34)CC1)N=CC1CCCN1C2=O (stereo unspecified)
(A) 4.15 µM

(Q) Next entry: c1ccc2c(c1)CCc1c(-c3ccncc3)n[nH]c1-2
(A) > 100 µM

(Q) Next entry: Cc1cc(C(=O)CSC(=S)SC(C)(C)C)ccc1Cl
(A) 62.9 µM

(Q) Next entry: CN1CC[C@]2(c3cccc(O)c3)CC(=O)/C(=C/c3ccccc3)[C@@H]1C2
(A) 6.74 µM

(Q) Next entry: CC(C)N1CCN(c2ccc(OCC3COC(Cn4cncn4)(c4ccc(Cl)cc4Cl)O3)cc2)CC1 (stereo unspecified)
(A) 47.1 µM

(Q) Next entry: COc1ccc(CNc2c3ccccc3nc3ccccc23)cc1F
(A) 11.3 µM

(Q) Next entry: CC(C(=O)COCc1ccccc1)P1(=O)OC(C)(C)CN1C(C)(C)C (stereo unspecified)
(A) > 100 µM

(Q) Next entry: CC(C)(CO)CNc1nc(N)nc(Cl)c1/C=N/O
(A) > 100 µM
